The reported numbers originate from patent US7199114B2.

Can you tell me Dollar Spot # of spots per plot for the items I'm about to list?
Test system: dollar spot
assay.details: Antifungal treatment on turf grass plots (Example 84), dollar spot count
Assay type: in vivo
test.parameters: Table 3 experiment; Jul. 2, 2001; 17.8 g/1000 sq. ft. (Daconil Ultrex 3.2 oz./1000 sq. ft.)
Just the number please, in spots per plot, no unit attached.

Problem: Form field: reported Dollar Spot # of spots per plot of C=C(C)[C@@H]1CC[C@]2(COC(=O)C[N+](C)(C)CCN(C)C)CC[C@]3(C)C(CCC4[C@@]5(C)CC[C@H](OC(=O)C[N+](C)(C)CCN(C)C)C(C)(C)C5CC[C@]43C)C12.[Cl-].[Cl-] (stereo partly shown) [Compound 7]
Solution: 21.5

Problem: What about this molecule? C=C(C[N+]12CCN(CC1)CC2)[C@@H]1CC[C@]2(COC(C)=O)CC[C@]3(C)C(CCC4[C@@]5(C)CC[C@H](OC(C)=O)C(C)(C)C5CC[C@]43C)C12.[Br-] (stereo partly shown) [Compound 18]
Solution: 20.8

Problem: What about this molecule? C=C(C)[C@@H]1CC[C@]2(COC(=O)CC[n+]3ccccc3)CC[C@]3(C)C(CCC4[C@@]5(C)CC[C@H](OC(=O)CC[n+]6ccccc6)C(C)(C)C5CC[C@]43C)C12.[Cl-].[Cl-] (stereo partly shown) [Compound 14]
Solution: 20.8

###

Test system: dollar spot
assay.details: Antifungal treatment on turf grass plots (Example 84), dollar spot count
Assay type: in vivo
test.parameters: Table 3 experiment; Jul. 16, 2001; 17.8 g/1000 sq. ft. (Daconil Ultrex 3.2 oz./1000 sq. ft.)
Experimental: Plots of creeping bentgrass, cv. “Pennlinks,” were treated with water based sprays of the test compounds. Sprays were delivered by CO2-charged sprayer to deliver the equivalent of 2 gallons of spray per 1000 sq. ft of plot area. Plots were 15 sq. ft. each, and treatments were mixed to apply material to 75 sq. ft (5 replicates), although only 4 replicates were treated. […] For brown patch, caused by Rhozoctonia sofani. a visual estimate of the percent of the plot area affected was recorded. […]
result.type: Dollar Spot # of spots per plot (spots per plot)
Just the number please, in spots per plot, no unit attached.

Problem: Form field: reported Dollar Spot # of spots per plot of C=C(C)[C@@H]1CC[C@]2(COC(=O)C[N+](C)(C)CCN(C)C)CC[C@]3(C)C(CCC4[C@@]5(C)CC[C@H](OC(=O)C[N+](C)(C)CCN(C)C)C(C)(C)C5CC[C@]43C)C12.[Cl-].[Cl-] (stereo partly shown)
Solution: 2.0

Problem: What about this compound? C=C(C)[C@@H]1CC[C@]2(COC(=O)C[n+]3ccccc3)CC[C@]3(C)C(CCC4[C@@]5(C)CC[C@H](OC(=O)C[n+]6ccccc6)C(C)(C)C5CC[C@]43C)C12.[Cl-].[Cl-] (stereo partly shown)
Solution: 1.5

Problem: What about this compound? C=C(C[N+]12CCN(CC1)CC2)[C@@H]1CC[C@]2(COC(C)=O)CC[C@]3(C)C(CCC4[C@@]5(C)CC[C@H](OC(C)=O)C(C)(C)C5CC[C@]43C)C12.[Br-] (stereo partly shown)
Solution: 1.8

Problem: What about this compound? C=C(C)[C@@H]1CC[C@]2(COC(=O)CC[n+]3ccccc3)CC[C@]3(C)C(CCC4[C@@]5(C)CC[C@H](OC(=O)CC[n+]6ccccc6)C(C)(C)C5CC[C@]43C)C12.[Cl-].[Cl-] (stereo partly shown)
Solution: 2.8
